# PROTOCOL TEXT: Urinary concentrations of NNI compounds in wild raccoons
# Type: in vivo, raccoon, Procyon lotor
# STATED CONDITIONS: raccoon urine, volume‐adjusted, n = 59
# cutoff 0.1 µg/L applies to GM ± SD urinary concentration; >= gives yes, < gives no

Worked set:
{"columns": ["COMPOUND", "ASSIGNED LABEL"],
 "data": [
  ["CN/C(=N/CC1CCOC1)N[N+](=O)[O-] (stereo not shown) [Dinotefuran, dinotefuran]", "yes"],
  ["N#C/N=C1\\SCCN1Cc1ccc(Cl)nc1 [Thiacloprid, thiacloprid]", "no"],
  ["CN1COCN(Cc2cnc(Cl)s2)/C1=N\\[N+](=O)[O-] [Thiamethoxam, thiamethoxam]", "no"]
]}

Next item in the queue.
Enquiry: Is GM ± SD urinary concentration at least 0.1 µg/L? Consider C/C(=N\C#N)N(C)Cc1ccc(Cl)nc1 [Acetamiprid, acetamiprid]
Return: no
